- TARGET_OF_ASSAY: 5-hydroxytryptamine receptor 2A (Homo sapiens)
- Sequence (P28223 whole entry): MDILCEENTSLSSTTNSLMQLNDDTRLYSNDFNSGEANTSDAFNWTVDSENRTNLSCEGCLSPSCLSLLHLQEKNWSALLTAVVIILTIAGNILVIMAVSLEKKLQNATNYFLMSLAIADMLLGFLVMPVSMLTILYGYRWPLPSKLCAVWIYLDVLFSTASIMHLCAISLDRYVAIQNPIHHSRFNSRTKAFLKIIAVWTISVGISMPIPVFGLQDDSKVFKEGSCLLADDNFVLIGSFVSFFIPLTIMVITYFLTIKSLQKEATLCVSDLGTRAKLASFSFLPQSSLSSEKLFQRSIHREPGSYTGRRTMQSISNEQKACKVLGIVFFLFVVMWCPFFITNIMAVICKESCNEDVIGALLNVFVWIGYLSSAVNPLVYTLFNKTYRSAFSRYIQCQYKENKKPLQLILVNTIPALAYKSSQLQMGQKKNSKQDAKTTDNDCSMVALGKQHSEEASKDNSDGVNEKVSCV
- MEASUREMENT_PROTOCOL: Inhibitory activity against human 5-HT2A receptor
OBSERVATION_TYPE: IC50 (nM)

>>> endpoint_result("Cc1cc(N2CCN(C)CC2)nc2ccc(NC(=O)COc3ccc(Cl)cc3)cc12")
2180

* * *

- TARGET_OF_ASSAY: Melanin-concentrating hormone receptor 1 (Homo sapiens, UniProt Q99705)
- Sequence (Q99705 whole entry): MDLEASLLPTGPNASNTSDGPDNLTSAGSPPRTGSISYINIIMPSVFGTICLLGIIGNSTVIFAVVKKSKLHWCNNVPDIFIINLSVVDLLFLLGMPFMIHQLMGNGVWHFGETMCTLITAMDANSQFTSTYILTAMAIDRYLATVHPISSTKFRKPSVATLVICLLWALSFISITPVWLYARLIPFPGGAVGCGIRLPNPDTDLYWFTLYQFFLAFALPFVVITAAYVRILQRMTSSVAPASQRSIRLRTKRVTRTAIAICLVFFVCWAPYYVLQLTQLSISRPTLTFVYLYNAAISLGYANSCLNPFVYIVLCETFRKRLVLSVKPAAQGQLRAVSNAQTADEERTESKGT
- MEASUREMENT_PROTOCOL: Tested for MCH-1 induced [Ca2+] release from CHO cells transfected with human MCH-1R
Listed below: IC50 values for each entry.
OBSERVATION_TYPE: IC50 (µM)

>>> endpoint_result("Cc1cc(N2CCCC2)nc2ccc(NC(=O)COc3ccc(C(F)(F)F)cc3)cc12")
0.01
>>> endpoint_result("Cc1cc(N2CCN(C)CC2)nc2ccc(NC(=O)COc3ccc(C(F)(F)F)cc3)cc12")
0.063
>>> endpoint_result("Cc1cc(N2CCOCC2)nc2ccc(NC(=O)COc3ccc(C(F)(F)F)cc3)cc12")
0.124
